# System under test: SARS-CoV-2 spike receptor-binding domain (RBD) (SARS-CoV-2, UniProt P0DTC2 319-541)
# Assay remarks: indirect ELISA, RBD coated on plate, 4PL fit
Recorded log10 of ELISA affinity, one value per entry.
Units before log transform: nM; reported quantity: ELISA affinity; transform: log10.

*Q* log10 of ELISA affinity lookup needed for Nb68 (VHH) VHH: QVQLVESGGGLVQAGGSLRLSCAASGGTLRSYNMGWFRQGPGKEREFVAAISWTGLGTYYGDSVKGRFTISRDVIKNTLYLQMDSLKPEDTAIYYCAADSSTSRLHSAGSDYRYWGQGTQVTVSS , thanks.
*A* 0.79

*Q* // query log10 of ELISA affinity value for entry Nb100 (VHH) VHH: EVQLVESGGGLVQAGGSLRLSCAASGLTFSSYNMGWFRQAPGKEREFVAFIRWSGTSTYYADSVKGRFTISRDTAKNTVYLQMNSLKLEDTAVYYCAATSRTMIHTSQTMRINWDYWGQGTQVTVSS
*A* 0.02

*Q* Quick one: log10 of ELISA affinity of Nb29 (VHH) VHH: HVQLVESGGGLVQAGGSLRLTCAASGGTFSTSTMDMGWFRQAPGKEREFVAVDSWNDGRAYYADSVKGRFTISRDNAKNTLYLQMNSLKPEDTAVYYCAAETYSNYEKAYSWGYWGQGTQVTVSS ?
*A* 0.10

*Q* Would you mind telling me what log10 of ELISA affinity value was observed for Nb66 (VHH) VHH: HVQLVESGGGLVQAGGSLRLSCAASGRTFSVNSIAWFRQAPGKEREFVATINWSGGDIYYADSVKGRFTISRDNGKNTVYLQMNSLKPTDTAVYYCAAARFYGRSIAQDYDSWGQGTQVTVSS ?
*A* -0.48

*Q* Given the entry Nb92 (VHH) VHH: HVQLVESGGGLVQAGGSLRLSCAASGRTFSAYGMGWFRQAPGKEREFVAGIARSGSEYYGDSVKGRFTISRDNAKNTVYLQMASLKAEDTGVYYCAADPTILYHALSQRTQNYRYWGPGTQVTVSS , report its measured log10 of ELISA affinity.
*A* 0.69

***
*Q* Please give the measured log10 of ELISA affinity for this binder: Nb80 (VHH) VHH: HVQLVESGGGLVQPGGSLRLSCAASGNFFLINVMSWWRQAPGNEHELHELVATITSDGRTNYGDAVQGRFTISRDNAKNTLYLQMNSLKPEDTAVYYCYAQGQGNREYWGQGTQVTVSS
*A* 0.71

*Q* // query log10 of ELISA affinity value for entry Nb82 (VHH) VHH: DVQLVESGGGLVQAGGSLGLSCAASGSIFRLTAMGWYRQAPGKQRDLVTTITSAGIPHYADSVKGRFTISRDNAKNTVYLQMNGLKPEDTAVYYCYANTLNSQLLPRAYWGQGTQVTVSS
*A* -0.07

*Q* Could you tell me which log10 of ELISA affinity is on file for Nb63 (VHH) VHH: QVQLVESGGGLVQAGGSLRLSCVASGSGFEPNAMGWYRQAPGKQRELVAGITSGGNANYADSVKGRFTISRDNVKNTVYLQMNSLKPEDTAVYYCQGPACSGSGCRNYWGQGTQVTVSS ?
*A* -0.08
